Target: LTD4 -induced contractions of guinea-pig trachea (Cavia porcellus)
Construct: contractions of guinea-pig tracheae; from tissue; host or cells: guinea-pig trachea
Sequence (Q2NNR5 whole entry): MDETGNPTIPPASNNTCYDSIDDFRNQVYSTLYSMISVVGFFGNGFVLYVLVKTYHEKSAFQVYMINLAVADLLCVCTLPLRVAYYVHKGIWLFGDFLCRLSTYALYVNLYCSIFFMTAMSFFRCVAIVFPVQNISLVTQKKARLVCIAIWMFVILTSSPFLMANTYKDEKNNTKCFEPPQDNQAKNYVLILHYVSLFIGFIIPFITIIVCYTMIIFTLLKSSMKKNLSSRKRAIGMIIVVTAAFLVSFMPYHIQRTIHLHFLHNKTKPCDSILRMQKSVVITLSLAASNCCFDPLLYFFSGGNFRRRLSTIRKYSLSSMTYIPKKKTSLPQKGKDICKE
Assay: inhibition of LTD4-induced contractions of guinea-pig trachea
Assay type: cell-based
Conditions: read-out: pKB values for the inhibition of LTD4 -induced contractions of guinea-pig trachea (converted)
Use 1000 nM as the dividing line for Kb, with the line itself on the t side and lower values as f.

See these solved cases before continuing.
{"structure string": "O=C(O)CCCCC(=O)Nc1cc(C(=O)O)ccc1OCCCc1ccc(OCCCCOc2ccccc2)cc1", "class": "f"}
{"structure string": "O=C(O)CCCOc1cc(C(=O)O)ccc1NC(=O)CCc1ccc(OCCCCOc2ccccc2)cc1", "class": "f"}
{"structure string": "O=C(O)c1cc(NS(=O)(=O)c2ccccc2)ccc1OCCCc1ccc(OCCCCOc2ccccc2)cc1", "class": "t"}
{"structure string": "O=C(CCCc1ccc(OCCCCOc2ccccc2)cc1)Nc1ccc(C(=O)O)cc1C(=O)O", "class": "f"}

Q: Decide: Kb of `O=C(O)CCCSc1cc(C(=O)O)ccc1NC(=O)CCc1ccc(OCCCCOc2ccccc2)cc1` >= 1000 nM?
Result: f

Q: Decide: Kb of `O=C(Cc1ccc(OCCCCOc2ccccc2)cc1)Nc1ccc(C(=O)O)cc1C(=O)O` >= 1000 nM?
Result: t

Q: Decide: Kb of `O=C(O)c1ccc(NC(=O)c2cc(C(=O)O)ccc2OCCCc2ccc(OCCCCOc3ccccc3)cc2)cc1` >= 1000 nM?
Result: f

Q: Decide: Kb of `O=C(CCCc1ccc(OCCCCOc2ccccc2)cc1)Nc1cc(C(=O)O)cc(C(=O)O)c1` >= 1000 nM?
Result: t
